Every entry's value here was drawn from patent US11192851B2.

Assay: Angle of rupture (Multi Tester MT-1001T)
Type: physicochemical
Conditions: crystal powder, after three impacts
Residues, ends and D or L forms follow the SMILES beside them.
ASSAY METRIC: Angle of rupture (°)

C[C@H](N)C(=O)N[C@@H](CCC(N)=O)C(=O)O [Example 12, L-alanyl-L-glutamine nonhydrate] (H-Ala-Gln-OH) ... 41.4
CCO.C[C@H](N)C(=O)N[C@@H](CCC(N)=O)C(=O)O [Example 2 (95° C. vacuum drying), L-alanyl-L-glutamine n-ethanolate] (H-Ala-Gln-OH) ... 35.0
CCO.C[C@H](N)C(=O)N[C@@H](CCC(N)=O)C(=O)O [Example 4 (95° C. vacuum drying), L-alanyl-L-glutamine n-ethanolate] (H-Ala-Gln-OH) ... 38.6
CCO.C[C@H](N)C(=O)N[C@@H](CCC(N)=O)C(=O)O [Example 1, L-alanyl-L-glutamine n-ethanolate] (H-Ala-Gln-OH) ... 34.6
